- test protocol: Study CL-004 plasma PK
- Assay type: in vivo, human
- measurement parameters: human, plasma, 600 mg, 600 mg QD treatment group
reported metric: concentration at 168 day (ng/mL)
Give bare numbers, in ng/mL.

The value of concentration at 168 day measured for the compound "O[C@@](Cn1cnnn1)(c1ccc(F)cc1F)C(F)(F)c1ccc(-c2ccc(OCC(F)(F)F)cc2)cn1" turned out to be 409

---

- test protocol: Study CL-011 plasma concentrations
- Type: in vivo
- measurement parameters: human, 150 mg, Week 48, read-out: mean (SD) plasma concentration
reported metric: concentration at 48 week
Output should be the measured figure followed by the unit it is expressed in.

Note to self: concentration at 48 week recorded for "O[C@@](Cn1cnnn1)(c1ccc(F)cc1F)C(F)(F)c1ccc(-c2ccc(OCC(F)(F)F)cc2)cn1" was 1150 ng/mL

src = patent US20240398773A1
